Origin of the recorded values: PubChem BioAssay (EPA / NIEHS)

- subject.of.test: Aryl hydrocarbon receptor (Homo sapiens) (UniProt P35869)
- Sequence (P35869 whole entry, looked up): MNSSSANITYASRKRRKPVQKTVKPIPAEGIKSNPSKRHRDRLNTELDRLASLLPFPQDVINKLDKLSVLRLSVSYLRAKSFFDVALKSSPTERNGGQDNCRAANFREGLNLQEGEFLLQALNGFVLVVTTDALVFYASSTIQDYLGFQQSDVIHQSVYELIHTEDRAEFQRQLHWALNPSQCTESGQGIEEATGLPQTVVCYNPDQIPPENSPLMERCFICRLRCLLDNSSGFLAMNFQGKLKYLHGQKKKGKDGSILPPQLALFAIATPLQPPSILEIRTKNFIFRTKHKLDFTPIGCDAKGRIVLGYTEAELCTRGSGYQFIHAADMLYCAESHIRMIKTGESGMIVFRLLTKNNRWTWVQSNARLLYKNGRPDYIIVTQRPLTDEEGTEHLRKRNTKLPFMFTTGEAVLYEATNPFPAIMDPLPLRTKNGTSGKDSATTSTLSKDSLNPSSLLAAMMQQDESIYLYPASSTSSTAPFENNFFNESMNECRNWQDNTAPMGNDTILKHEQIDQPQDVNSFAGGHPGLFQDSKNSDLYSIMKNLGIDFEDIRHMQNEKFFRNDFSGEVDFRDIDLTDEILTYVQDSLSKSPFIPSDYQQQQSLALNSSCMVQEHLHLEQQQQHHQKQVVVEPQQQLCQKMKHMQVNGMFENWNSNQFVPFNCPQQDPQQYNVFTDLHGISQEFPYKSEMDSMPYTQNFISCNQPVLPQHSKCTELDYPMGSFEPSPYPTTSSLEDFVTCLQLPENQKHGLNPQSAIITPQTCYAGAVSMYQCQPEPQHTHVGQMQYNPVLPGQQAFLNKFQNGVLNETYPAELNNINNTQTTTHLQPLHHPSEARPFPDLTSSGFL
- measurement.description: ATG_Ahr_CIS: Attagene CIS-FACTORIAL HepG2 Assay for human Aryl Hydrocarbon Receptor (Ahr) (AID 2282930)
- setup.conditions: HepG2 AhR cis-factorial reporter transcription; actives raise or lower the signal
The source made the active and inactive calls. Rule for the calls: active = hit-call score of the fitted dose curve at least 0.9, where 1 is the maximum; inactive = score below 0.9.
Answer with one of the outcomes given here: yes (1) = active, no (0) = inactive

### Prompt Please state the recorded outcome for this molecule: Nc1ccc(Cl)c(N)c1
### Response yes (1)

Continuing:
### Prompt What call does the record list for CC12CCC(CC1)C(C)(C)O2 ?
### Response no (0)

* * *

- subject.of.test: X-box-binding protein 1 (Homo sapiens) (UniProt P17861)
- Sequence (P17861 whole entry, looked up): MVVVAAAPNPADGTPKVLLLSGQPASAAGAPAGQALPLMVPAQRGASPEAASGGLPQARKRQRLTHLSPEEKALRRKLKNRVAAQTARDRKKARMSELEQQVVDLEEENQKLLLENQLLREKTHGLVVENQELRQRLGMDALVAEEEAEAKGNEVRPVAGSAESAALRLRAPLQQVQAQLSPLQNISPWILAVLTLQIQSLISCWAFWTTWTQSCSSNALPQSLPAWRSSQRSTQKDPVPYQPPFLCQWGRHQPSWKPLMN
- measurement.description: ATG_Xbp1_CIS: Attagene CIS-FACTORIAL HepG2 Assay for human X-box Binding Protein 1 (XBP1) (AID 2282972)
- setup.conditions: HepG2 XBP1 cis-element reporter, Attagene multiplex; actives raise or lower the signal
Activity calls are given as the source filed them. The calls were made as follows: active = hit-call score of the fitted dose curve at least 0.9, where 1 is the maximum; inactive = score below 0.9.
// classify into active, inactive

### Prompt Dear colleague, could you share the recorded outcome for C[Si](C)(C)N[Si](C)(C)C when you have a moment?
### Response inactive

### Prompt C=CC(=O)NC(C)(C)C ?
### Response inactive

***
### Prompt What did the test return for O=C(O)c1ccc2c(c1)C(=O)OC2=O ?
### Response inactive

### Prompt Try CCCCC(C=O)CC (centres undefined) next.
### Response inactive

### Prompt Thanks! And CC(C)(C)C1CCC(=O)CC1 ?
### Response inactive

### Prompt Also need Nc1ccc(C(=O)O)cc1 , thanks.
### Response inactive

### Prompt Next compound: CC(=O)OC1CCCCC1
### Response inactive

### Prompt Same lookup for CC/C=C\C/C=C\C/C=C\CCCCCCCC(=O)OC , please.
### Response inactive

### Prompt Now this one: CC(c1cc(C(C)(C)C)cc(C(C)(C)C)c1O)c1cc(C(C)(C)C)cc(C(C)(C)C)c1O
### Response inactive

### Prompt Another compound to look at: CC(C)[N+](C)(CCOC(=O)C1c2ccccc2Oc2ccccc21)C(C)C
### Response inactive

### Prompt What do you have for C=C(C)C(=O)OCC(O)COc1ccc(C(C)(C)c2ccc(OCC(O)COC(=O)C(=C)C)cc2)cc1 (centres undefined) ?
### Response active

### Prompt Same question for CC(=O)C(C)C please.
### Response inactive

### Prompt And what about the compound CCOC(=O)[C@H](O)[C@@H](O)C(=O)OCC ?
### Response inactive

### Prompt What would you report for CC1(C)CC(O)CC(C)(C)N1[O] ?
### Response inactive
